ASSAY_NOTES: blockers of STAT3 transcriptional signaling – U3A cells, luciferase, luminescence, MLSCN library, primary screen (AID 862);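 note: 0% = DMSO only wells and 100% = 100 µM nifuroxazide control wells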
RUN_PARAMETERS: IL-6 STAT3-luciferase reporter, at 5.5 µM, stronger effect = higher value, host cell line lacks STAT1
Out of some 190,000 compounds screened, about 1,700 (0.89%) were called active. The sample holds actives, similar compounds and a random draw of the others, so the mix is not that of the screen.
Property: inhibition; scope: individual molecules
All answers are understood in %, so give the number only.

Sample records with inhibition:
>  <SMILES_STRING>
O=C(CC(=O)Nc1ccc(Cl)c(Cl)c1)N/N=C/c1ccc(O)cc1

>  <UNIT_ANNOTATION>
%

>  <inhibition>
-5

$$$$
>  <SMILES_STRING>
Cc1ccc2cc3cc(C(=O)N4CCCCCC4)oc3nc2c1

>  <UNIT_ANNOTATION>
%

>  <inhibition>
48.7

$$$$

Recorded inhibition (molecule c1ccc(-c2cc(N3CCCCC3)c3ccccc3n2)cc1 ): 9.3
